experimental.system: human σ2/TMEM97 receptor (Homo sapiens, UniProt Q5BJF2)
Sequence (Q5BJF2 whole entry): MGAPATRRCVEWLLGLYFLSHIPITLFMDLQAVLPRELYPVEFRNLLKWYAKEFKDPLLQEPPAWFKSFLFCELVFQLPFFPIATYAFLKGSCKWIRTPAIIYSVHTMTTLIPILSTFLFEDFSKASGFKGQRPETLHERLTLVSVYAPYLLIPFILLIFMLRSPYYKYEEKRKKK
method: Binding assay to human σ2/TMEM97 receptor
conditions.used: transfected HEK-293 membranes, 10 nM [3H]-DTG, 25° C. 120 minutes; + may also stand for 1-50% inhibition at 1 or 10 μM; read-out: Binding σ-2 Ki
Exercise: for every item that follows, state its recorded Ki.

{"columns": ["molecule", "observed.result"],
 "data": [
  ["CC(C)(C)CCN1CCC2(CCCN(S(=O)(=O)c3ccc(N4CCCCC4=O)nc3)C2)CC1", "< 100 nM"]
]}

State recorded Ki for all listed molecules.
1. O=S(=O)(NC1CC2(CCN(Cc3ccccc3)CC2)C1)c1ccc(N2CCOCC2)nc1
2. CCC(=O)Nc1ccc(S(=O)(=O)N2CCCC3(CCN(CCC(C)(C)C)CC3)C2)cn1
3. CC(C)(C)CCN1CCC2(CCCN(S(=O)(=O)c3ccc(N4CCOC4=O)nc3)C2)CC1
4. O=C1OCCN1c1ccc(S(=O)(=O)N2CCC3(CCN(Cc4ccccc4)CC3)C2)cn1
5. CC(C)(C)CCN1CCC2(CCCN(S(=O)(=O)c3ccc(N4CCS(=O)(=O)CC4)nc3)C2)CC1

Solution:
1. 100 to 500 nM
2. < 100 nM
3. < 100 nM
4. 100 to 500 nM
5. < 100 nM

State recorded Ki for all listed molecules.
1. CCc1ccc(S(=O)(=O)N2CCCC3(CCN(CCC(C)(C)C)CC3)C2)cn1
2. CC(=O)Nc1ccc(S(=O)(=O)N2CCCC3(CCN(CCC(C)(C)C)CC3)C2)cn1

Solution:
["< 100 nM", "< 100 nM"]

State recorded Ki for all listed molecules.
1. O=C1CCCN1c1ccc(S(=O)(=O)N2CCCC3(CCN(CC4CCOCC4)CC3)C2)cn1
2. O=S(=O)(N[C@H]1CCN(Cc2ccc(F)cc2)C1)c1ccc(N2CCOCC2)nc1
3. CN(C)c1ccc(S(=O)(=O)N2CCCC3(CCN(CCC(C)(C)C)CC3)C2)cn1
4. CN(Cc1ccccc1)C1CCN(S(=O)(=O)c2ccc(N3CCC4(CCCO4)CC3)nc2)CC1
5. CC(C)(C)CCN1CCCC2(CCN(S(=O)(=O)c3ccc(N4CCOC4=O)cn3)CC2)C1
6. N#Cc1cc(CN2CCC3(CC2)CCN(S(=O)(=O)c2ccc(N4CCOC4=O)nc2)C3)ccc1F
7. CC(C)(C)CCN1CCC2(CC1)CCN(S(=O)(=O)c1ccc(C(F)(F)F)nc1)CC2
8. N#Cc1cc(CN2CCCC3(CCN(S(=O)(=O)c4ccc(N5CCOC5=O)nc4)CC3)C2)ccc1F

Solution:
["< 100 nM", "> 1000 nM", "< 100 nM", "< 100 nM", "< 100 nM", "100 to 500 nM", "< 100 nM", "> 1000 nM"]

###

experimental.system: human σ1 receptor (Homo sapiens)
Sequence (Q99720 whole entry): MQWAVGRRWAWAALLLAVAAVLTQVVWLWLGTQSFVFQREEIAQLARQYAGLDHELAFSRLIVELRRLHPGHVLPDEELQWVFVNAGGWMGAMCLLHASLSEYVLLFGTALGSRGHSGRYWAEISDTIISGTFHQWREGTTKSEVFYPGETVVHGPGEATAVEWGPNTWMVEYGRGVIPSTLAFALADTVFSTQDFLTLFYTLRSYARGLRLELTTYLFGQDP
pKi: −log10 of the molar value.
Exercise: for every item that follows, state its recorded pKi.

Field: example entries. Status: answers known.
{"columns": ["molecule", "observed.result"],
 "data": [
  ["O=S(=O)(NC1CN(Cc2ccccc2)C1)c1ccc(N2CCOCC2)nc1", "> 7.00"],
  ["CN(C)c1ccc(S(=O)(=O)N2CCCC3(CCN(CCC(C)(C)C)CC3)C2)cn1", "> 7.00"],
  ["CCC(=O)N(C)c1ccc(S(=O)(=O)N2CCCC3(CCN(CCC(C)(C)C)CC3)C2)cn1", "6.30 to 7.00"],
  ["CC(C)(C)CCN1CCC2(CCCN(S(=O)(=O)c3ccc(N4CCOC4=O)nc3)C2)CC1", "6.30 to 7.00"],
  ["O=S(=O)(c1ccc(N2CCOCC2)nc1)N1CCC[C@H](CNCc2ccc(O)nc2)C1", "< 6.00"]
]}

State recorded pKi for all listed compounds.
1. O=C1OCCN1c1ccc(S(=O)(=O)N2CCC3(CCN(Cc4ccccc4)CC3)CC2)cn1
2. CC(C)(C)CCN1CCC2(CC1)CCN(S(=O)(=O)c1cnc(N3CCCC3=O)c(F)c1)CC2

Solution:
["> 7.00", "6.30 to 7.00"]

Exercise: // fetch pKi given entry N#Cc1cccc(CN2CC[C@@H](NS(=O)(=O)c3ccc(N4CCOCC4)nc3)C2)c1
Solution: 6.30 to 7.00
